Just for reference, ChEMBL document CHEMBL3988442 is where these values come from.

Biological target: Shiga toxin 2 (Escherichia coli O157:H7) (UniProt P09385+P09386)
Assay: E. coli 0.157:H7 Shiga Toxin SOP - stx2 screening assay
Assay type: functional
Parameters: scale not given: direction of the effect not stated beside the values
Conditions: 30 µM
Measure: Percent Effect
Answer as a quantity: numeral, then unit.

So, CCN(CC1CCOC1)C(=O)Nc1ccc(N2CCCC2)nc1 (centres undefined) ? Its Percent Effect was 1.73%

So, O=C(CC1CC1)N1CCn2cc(Cn3cncn3)nc2C1 ? Its Percent Effect was -11.8%

So, Cc1csc(N2CCCN(C(=O)C(C)n3ccnc3)CC2)n1 (centres undefined) ? Its Percent Effect was -6.32%

So, Cc1c[nH]cc1C(=O)N1CCN(Cc2nc(C(C)C)no2)CC1 ? Its Percent Effect was 9.19%

So, Cc1ccccc1-c1cncc(C2CCN(C(=O)CN(C)C)CC2)n1 ? Its Percent Effect was -18.5%

So, NC(=O)c1ccc(N2CCCCC2)c(NC(=O)c2cncc(Br)c2)c1 ? Its Percent Effect was -52.6%

So, O=C(NC1(c2cccc(F)c2)CCOCC1)c1cc[nH]n1 ? Its Percent Effect was -26.7%

So, OCCn1cc(CN2CCN(CCOc3ccccc3)CC2)cn1 ? Its Percent Effect was 13.3%

So, CSCCCN1CC[C@@H](NC(=O)c2cnccn2)[C@H](O)C1 ? Its Percent Effect was 2.82%

So, CC(C)Sc1ncccc1C(=O)NCc1ccc(CS(C)(=O)=O)cc1 ? Its Percent Effect was 13.1%

So, c1cnn(CC2CCCN2c2ncnc3sccc23)c1 (centres undefined) ? Its Percent Effect was 26.3%

So, COc1ccc(C)cc1CN(C)Cc1nc2c(cnn2C)c(=O)[nH]1 ? Its Percent Effect was 46.7%

So, Cc1cc(CN(C)C(=O)c2ccc(Cl)c(S(C)(=O)=O)c2)no1 ? Its Percent Effect was -3.87%

So, CC(C)c1n[nH]c(C2CN(C(=O)c3cccc4cn[nH]c34)CCO2)n1 (centres undefined) ? Its Percent Effect was 9.23%

So, Cc1noc(C)c1CN1CC2(CCN(C(=O)c3cscn3)CC2)CC1=O ? Its Percent Effect was -13.6%

So, O=C(c1ccncc1F)N1CCc2ncnc(-c3ccncc3)c2CC1 ? Its Percent Effect was -0.901%

So, CCCc1noc(CCC(=O)NC(C)c2nnc3n2CCCCC3)n1 (centres undefined) ? Its Percent Effect was -15.1%

So, CN(Cc1ccc(C#N)cc1)Cc1noc(C(C)(C)C)n1 ? Its Percent Effect was -19%

So, Cc1noc(C2CCN(C(=O)c3ccc(N(C)C)nc3)CC2)n1 ? Its Percent Effect was -12.5%

So, O=C(CSC1CCc2ccccc2NC1=O)NCCO (centres undefined) ? Its Percent Effect was -11.3%

So, CN(C)C(=O)C1CN(Cc2cscn2)CCN(S(C)(=O)=O)C1 (centres undefined) ? Its Percent Effect was -12.3%

So, Cc1cccc(C(=O)N2CCN(S(C)(=O)=O)[C@@H](C)C2)c1C ? Its Percent Effect was -11.5%

So, CCN(CC)C(=O)c1ccc(NC(=O)CNc2ccc(Br)cc2F)cc1 ? Its Percent Effect was -41.8%

So, Cc1nc(C2CCCN2CC(=O)NCCc2ccsc2)no1 (centres undefined) ? Its Percent Effect was -9.77%

###

Biological target: Shiga toxin 2 (Escherichia coli O157:H7) (UniProt P09385+P09386)
Assay: E. coli 0.157:H7 Shiga Toxin SOP - stx2 screening assay
Assay type: functional
Parameters: scale not given: direction of the effect not stated beside the values
Conditions: 30 µM
Field: Percent Effect. Provide a value for each of the compounds that follow.
Numbers only; they are read as %.

So, Cc1noc(C)c1CN(C)CC1CCCN1c1cccnn1 (configuration not stated) ? Its Percent Effect was 14.9

So, CC(C)NC(=O)c1ccc2c(c1)nc1n2CCN(c2ccccc2)C1 ? Its Percent Effect was -15.6

So, O=C(Cn1c(=O)nc2n1C(=O)N(c1ccccc1)C2)Nc1ccccc1 ? Its Percent Effect was 16.3

So, CC(=O)N1CCC(c2cc(C(F)(F)F)n3ccnc3n2)CC1 ? Its Percent Effect was -9.96

So, O=C(c1ccccn1)N1CCc2c(nc(N3CCCC3)[nH]c2=O)C1 ? Its Percent Effect was -39.9

So, CCn1cc2c(n1)CN(C(=O)c1ccncc1)CC2COCC1CC1 (configuration not stated) ? Its Percent Effect was -17.4

So, Cn1cc(CN2CC[C@@H]3O[C@H](C(=O)N4CCOCC4)C[C@@H]32)cn1 ? Its Percent Effect was -23.7

So, COCCCNC(=O)N1CCCC(c2nncn2C)C1 (configuration not stated) ? Its Percent Effect was 21.1

So, O=C(NCCC(=O)N1CCCc2ccccc21)c1c(O)cc(F)cc1F ? Its Percent Effect was -9.36

So, CC(=O)N1CCCC1c1nnc2n1CCCCC2 (configuration not stated) ? Its Percent Effect was 0.261

So, CCC(=O)N1CCCC1c1nccnc1Nc1ncccn1 (configuration not stated) ? Its Percent Effect was 2.75

So, CC(C)Cc1cc(C(=O)N2CCCC(n3cncn3)C2)[nH]n1 (configuration not stated) ? Its Percent Effect was 2.44

###

Target: Aspartate--tRNA(Asp/Asn) ligase (Mycobacterium tuberculosis (strain ATCC 25618 / H37Rv)); note: in the data most compounds retested in dose-response had high values
Sequence (whole entry): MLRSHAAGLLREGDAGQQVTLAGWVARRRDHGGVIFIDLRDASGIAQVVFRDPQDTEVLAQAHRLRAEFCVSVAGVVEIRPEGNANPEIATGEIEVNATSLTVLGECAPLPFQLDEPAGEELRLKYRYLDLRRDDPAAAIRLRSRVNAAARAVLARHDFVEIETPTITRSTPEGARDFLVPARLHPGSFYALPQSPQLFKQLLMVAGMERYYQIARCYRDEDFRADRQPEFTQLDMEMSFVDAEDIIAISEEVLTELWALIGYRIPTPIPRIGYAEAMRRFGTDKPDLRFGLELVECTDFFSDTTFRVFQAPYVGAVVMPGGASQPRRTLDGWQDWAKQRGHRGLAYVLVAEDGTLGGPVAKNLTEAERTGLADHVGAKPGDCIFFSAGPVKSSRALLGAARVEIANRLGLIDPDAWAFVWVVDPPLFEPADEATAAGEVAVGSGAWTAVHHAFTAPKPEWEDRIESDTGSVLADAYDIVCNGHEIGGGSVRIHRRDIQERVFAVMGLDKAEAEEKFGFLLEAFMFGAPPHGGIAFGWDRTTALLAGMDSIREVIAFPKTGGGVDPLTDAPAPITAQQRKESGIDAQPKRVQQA
Test: Assay for Asp RNA synthetase-1 from Mycobacterium tuberculosis
Format: functional
Design: scale not given: direction of the effect not stated beside the values
Settings: 30 µM
Field: Percent Effect. Provide a value for each of the compounds that follow.
Numbers only; they are read as %.

So, CCC(CC)c1cc(CNC(=O)N2CCCC(N(C)C)C2)on1 (stereo not drawn) ? Its Percent Effect was -1.74

So, CC(=O)N1CCN(C(=O)NCc2csc(Br)c2)CC1 ? Its Percent Effect was 0.204

So, CC(NC(=O)NCCCn1cncn1)c1ccc2c(c1)OCCO2 (stereo not drawn) ? Its Percent Effect was 0.175

So, Cn1ccc(CN2CCC(CO)CC2)cc1=O ? Its Percent Effect was -0.422

So, Cc1cc(N2CCN3CCCCC3C2)n2nc(C)c(C)c2n1 (stereo not drawn) ? Its Percent Effect was -12.4

So, Cc1noc(C2CCN(C(=O)CN(C)c3ccc(Cl)cn3)CC2)n1 ? Its Percent Effect was -1.59

So, Cc1cccc(C(=O)N2CCCN(Cc3cnn(C)c3)CC2)n1 ? Its Percent Effect was -3.08

So, Cc1ccc2cc(C(=O)NCCn3nc4ccccn4c3=O)[nH]c2c1 ? Its Percent Effect was -5.08

So, O=C(CN1CCc2cncnc2C1)NCCOc1ccccc1 ? Its Percent Effect was 0.955

So, Cn1cnc2c1CCN(Cc1nc(Cc3ccccc3)no1)C2 ? Its Percent Effect was -1.94

So, CC(=O)NC(C)CC(=O)NCc1cccnc1Oc1ccccc1C (stereo not drawn) ? Its Percent Effect was -4.43

So, CCN1CCC2(CC1)CC(Nc1ncccn1)CO2 (stereo not drawn) ? Its Percent Effect was -1.65

So, O=C(c1cc(COc2ccc3c(c2)OCO3)[nH]n1)N1CCOCC1 ? Its Percent Effect was -0.0228

So, CN(Cc1ccccc1)CC(O)Cn1cnc2c(cnn2C)c1=O (stereo not drawn) ? Its Percent Effect was -0.522

So, Cc1noc(C(C)C)c1C(=O)N1CCOCC1CC(=O)c1ccco1 (stereo not drawn) ? Its Percent Effect was 2.61

So, Cc1nc(CN2C(=O)CC[C@@H]3[C@H]2CCN3C(=O)NC2CC2)cs1 ? Its Percent Effect was -0.474

So, Cc1nc(N2CCN(C(=O)c3ccsc3)CC2)c2cnn(C)c2n1 ? Its Percent Effect was 5.51

So, Cn1c(C2CC2)nc2c1CCN(CCS(=O)(=O)c1ccccc1)C2 ? Its Percent Effect was -5.83

So, Cc1cnn(Cc2cc(F)ccc2F)c1NC(=O)NC1CC1 ? Its Percent Effect was -1.44

So, CNc1nc2c(s1)C(c1c(F)cccc1Cl)CC(=O)N2 (stereo not drawn) ? Its Percent Effect was 61.3

So, Clc1ccccc1C1(c2ccnc(CC3CC3)n2)CCNCC1 ? Its Percent Effect was -0.0892

So, CCOc1ncccc1NC(=O)c1sccc1C ? Its Percent Effect was -0.501

So, O=C(Nc1ccccc1)N1CCn2nnc(COc3cccnc3)c2C1 ? Its Percent Effect was 9.35

So, CC(c1nc(C(C)(C)C)no1)N1CCN(CC(=O)N2CCOCC2)CC1 (stereo not drawn) ? Its Percent Effect was -1.23

So, Cc1ccn(CCC(=O)N2CCOC(c3nc(-c4cccs4)no3)C2)n1 (stereo not drawn) ? Its Percent Effect was -0.897

So, CCCNC(=O)c1sccc1N(C)S(=O)(=O)c1ccc(Cl)cc1 ? Its Percent Effect was 12.9

So, CC(=O)NCC(=O)N1CC[C@H](OCC2CC2)[C@@H]1Cc1cccnc1 ? Its Percent Effect was 1.14

So, COc1ccc(NC(C)C(=O)NCCc2cccs2)cc1F (stereo not drawn) ? Its Percent Effect was 7.04

So, COc1ncc(NC(=O)Nc2cc(C)ccc2OC)cn1 ? Its Percent Effect was 1.65

So, COc1ccc(NC(=O)Cn2nc(C)ccc2=O)cc1OC ? Its Percent Effect was -0.697

So, CCc1nc(COc2ccc(OCc3cnn(C)c3)cc2)no1 ? Its Percent Effect was 0.524

So, CC(=O)c1cn(CC(=O)NC(C(=O)O)C(C)C)c2ccccc12 (stereo not drawn) ? Its Percent Effect was -0.402

So, CC(C)(C)c1cnc(CN2CCCC2Cn2cccn2)o1 (stereo not drawn) ? Its Percent Effect was -3.34

So, CCc1nccn1C1CCCN(C(=O)c2cc3nc(C)ccc3o2)C1 (stereo not drawn) ? Its Percent Effect was -2.42

So, CCN(Cc1ccc2c(c1)OCCO2)C(=O)NCc1cc[nH]n1 ? Its Percent Effect was 3.66

So, Cc1cc(=O)n2ncnc2n1CC(O)c1cc(F)ccc1F (stereo not drawn) ? Its Percent Effect was 3.44

So, CN(C)C(=O)c1ccc2c(c1)N(C)C(CC(=O)NCc1ccno1)CO2 (stereo not drawn) ? Its Percent Effect was -2.42

So, CC(=O)c1c(F)cccc1N1CCC(Cc2cccnc2)CC1 ? Its Percent Effect was 0.661

So, CC1=N[C@@]2(CC[C@@H]3CN(S(=O)(=O)N(C)C)C[C@@H]32)C(=O)N1CC(C)C ? Its Percent Effect was 6.65

So, Cc1ccc2c(ccn2CCC(=O)O)c1 ? Its Percent Effect was 0.776

So, CCn1nc(CC(C)C)cc1C(=O)NCCCOC ? Its Percent Effect was -0.668

So, COc1ccc(CC(=O)N2CCCC2Cn2cccn2)cc1F (stereo not drawn) ? Its Percent Effect was -0.871

So, CCNC(=O)C1CCN(Cc2csc(-c3ccc(C)o3)n2)CC1 ? Its Percent Effect was 6.68

So, COC(=O)C(c1cc(F)ccc1F)N(C)C(=O)c1cccnc1O (stereo not drawn) ? Its Percent Effect was -4.32

So, Cc1ccc(CC(=O)N2CCCC(c3cc(C)[nH]n3)C2)cn1 (stereo not drawn) ? Its Percent Effect was -0.962

So, COCCN1CCN(C(=O)c2ccncc2F)Cc2cccnc21 ? Its Percent Effect was -0.348

So, Cc1ccc(NC(C)C(=O)NCc2cccs2)cc1C (stereo not drawn) ? Its Percent Effect was 3.13

So, Cc1cnn(CC2CCCCN2Cc2nc(-c3ccoc3)no2)c1 (stereo not drawn) ? Its Percent Effect was 2.91
